# ASSAY_SYSTEM: SARS CoV-2 PLpro (Severe acute respiratory syndrome coronavirus 2 (2019-nCoV) (SARS-CoV-2), UniProt P0DTD1)
# TEST_PROTOCOL: biochemical
# Format: biochemical
# STATED_CONDITIONS: read-out: Enzymatic assay IC50
Labelling: IC50 reported below 6 µM becomes 1; at or above becomes -1.

Examples from the recorded data:
[[record]]
molecule = "Cc1ccc(N(C)C2CNC2)cc1C(=O)N[C@H](C)c1cccc2c1ccn2CC1CCC1"
category_label = 1

[[record]]
molecule = "C[C@@H](NC(=O)c1cc(NC2CNC2)ccc1Cl)c1csc2ccccc12"
category_label = -1

[[record]]
molecule = "Cc1ccc(N)cc1C(=O)NC(C)c1cccc2cc[nH]c12 (stereo not shown)"
category_label = 1

[[record]]
molecule = "Cc1ccc(NC(=O)C2CN(C(=O)OC(C)(C)C)C2)cc1C(=O)N[C@H](C)c1cccc2ccccc12"
category_label = 1


Consider the record given below.
Problem: For the molecule `Cc1ccc(NC2CCN(C(=O)OC(C)(C)C)CC2)cc1C(=O)N[C@H](C)c1cccc2ccccc12` , is IC50 under 6 µM?
1

====

# ASSAY_SYSTEM: SARS CoV-2 PLpro (Severe acute respiratory syndrome coronavirus 2 (2019-nCoV) (SARS-CoV-2), UniProt P0DTD1)
# TEST_PROTOCOL: biochemical
# Format: binding
# STATED_CONDITIONS: Table 10; read-out: SPR binding assays KD
RESULT_TYPE: pKd
FYI, pKd means -log10 of a concentration in mol per litre.

Name the reported pKd value associated with the compound `C=C(N[C@H](C)c1cccc2ccccc12)C(=O)c1cc(N(C)C2CNC2)ccc1Cl`
4.38

====

# TEST_PROTOCOL: in vitro
# STATED_CONDITIONS: human, Caco-2
Classification field: rule met = Papp B→A at or over 3 ×10⁻⁶ cm/s; rule not met = Papp B→A under 3 ×10⁻⁶ cm/s.

Worked set:
[[record]]
compound = "CC(C)NCC(O)COc1cccc2ccccc12 (centres unmarked)"
category_label = "rule met"

[[record]]
compound = "C[C@H]1O[C@@H](O[C@H]2[C@@H](O)C[C@H](O[C@H]3[C@@H](O)C[C@H](O[C@H]4CC[C@@]5(C)[C@H](CC[C@@H]6[C@@H]5C[C@@H](O)[C@]5(C)[C@@H](C7=CC(=O)OC7)CC[C@]65O)C4)O[C@@H]3C)O[C@@H]2C)C[C@H](O)[C@@H]1O"
category_label = "rule met"

[[record]]
compound = "Cc1ccc(N)cc1C(=O)N[C@H](C)c1cccc2ccccc12 [GRL0617, reference compound]"
category_label = "rule met"


Here's the next entry for you.
Hi team, for `Cc1ccc(NC2CNC2)cc1C(=O)N[C@H](C)c1cccc(-c2ccc(CNC3CCCC3)s2)c1` , is the recorded Papp B→A at or above 3 ×10⁻⁶ cm/s?
rule not met

====

# TEST_PROTOCOL: in vitro
# STATED_CONDITIONS: human, Caco-2
RESULT_TYPE: efflux ratio

Give the measured efflux ratio of CC(C)NCC(O)COc1cccc2ccccc12 (stereo not shown) [Propranolol] .
1.02

====

# STATED_CONDITIONS: human
The entries below are paired with their reported Scale-up CIint.
Please respond with the number in mL/min/kg and leave the unit unwritten.

As a guide, the following entries are already answered.
[[record]]
molecule = "Cc1ccc(NC2CNC2)cc1C(=O)N[C@H](C)c1cccc(-c2ccc(CN3CC[C@H](O)C3)s2)c1"
unit_name = "mL/min/kg"
measured_result = 0.34

[[record]]
molecule = "Cc1ccc(NC2CNC2)cc1C(=O)N[C@H](C)c1cccc(-c2ccc(CN3CCCC3)s2)c1"
unit_name = "mL/min/kg"
measured_result = 12.04

[[record]]
molecule = "Cc1ccc(NC2CNC2)cc1C(=O)N[C@H](C)c1cccc(-c2cccs2)c1 (single isomer, unassigned)"
unit_name = "mL/min/kg"
measured_result = 7.07


Could you now consider this next molecule?
So what's the measured Scale-up CIint for this one? `Cc1ccc(NC2CNC2)cc1C(=O)N[C@H](C)c1cccc(-c2ccc(CNC3CCCC3)s2)c1`
7.38
